target-under-test: HSD17B1 (Homo sapiens (Human), UniProt P14061)
Sequence (P14061 other isoform, or with tags, fused parts or gaps): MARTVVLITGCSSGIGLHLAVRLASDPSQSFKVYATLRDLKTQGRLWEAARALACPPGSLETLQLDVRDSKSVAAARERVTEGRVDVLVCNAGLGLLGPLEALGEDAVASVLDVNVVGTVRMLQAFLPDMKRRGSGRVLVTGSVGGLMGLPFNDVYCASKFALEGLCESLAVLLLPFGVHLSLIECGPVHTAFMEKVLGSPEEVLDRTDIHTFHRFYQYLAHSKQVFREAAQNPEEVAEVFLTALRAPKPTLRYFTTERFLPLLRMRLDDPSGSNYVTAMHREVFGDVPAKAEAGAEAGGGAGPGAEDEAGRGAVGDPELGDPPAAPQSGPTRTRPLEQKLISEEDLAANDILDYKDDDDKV
Would you kindly list pIC50 for each of these compounds?
Answers are plain numbers, as −log10 of the molar value.

| line-notation | endpoint-result |
| --- | --- |
| Nc1cccc2c(NC(=O)c3ccc(C(F)(F)F)[nH]c3=O)cccc12 | 4.61 |
| CCCc1cc(CCC)cc(NC(=O)c2ccc(C(F)(F)F)[nH]c2=O)c1 | 4.55 |

Now look at this entry.
Response field pIC50 (HSD17B1 (Homo sapiens (Human), UniProt P14061)) for item Cc1ccc2c(c1)Oc1cc(C)ccc1C2NC(=O)c1cc(-c2cncnc2)c(C(F)(F)F)[nH]c1=O : 5.31
